system: Hep G2; test: three days cytotoxicity bioassay against Hep G2; settings: human hepatoma cell line Hep G2, three days bioassay
Form field: Cytotoxicity IC50 Hep G2 (one value per entry).
API: value field is a number in µg/mL; no unit string.

Guide cases for Cytotoxicity IC50 Hep G2, answers given:
{"Compound": "CCCCCC(O)C(O)CCCCCC[C@@H](O)[C@H]1CC[C@H](CCCCCCCCCC[C@@H](O)CC2=C[C@H](C)OC2=O)O1 (some centres unmarked)", "Cytotoxicity IC50 Hep G2 [µg/mL]": 5.04}
{"Compound": "CCCCC(O)C(O)C/C=C\\CC[C@H](O)[C@@H]1CC[C@@H](CCCCCCCCCCCC[C@@H](O)CC2=C[C@H](C)OC2=O)O1 (some centres unmarked)", "Cytotoxicity IC50 Hep G2 [µg/mL]": 0.0428}
{"Compound": "CCCCCCCC(O)C(O)CC[C@H](O)[C@@H]1CC[C@@H](CCCCCCCCCC[C@@H](O)CC2=C[C@H](C)OC2=O)O1 (some centres unmarked)", "Cytotoxicity IC50 Hep G2 [µg/mL]": 0.00066}
{"Compound": "CCCCCC(O)C(O)CCCCCC[C@H](O)[C@@H]1CC[C@H](CCCCCCCCCC[C@H](O)CC2=C[C@H](C)OC2=O)O1 (some centres unmarked)", "Cytotoxicity IC50 Hep G2 [µg/mL]": 1.78}

Now consider the entry below.
Ask | Fill in the blank: the reported Cytotoxicity IC50 Hep G2 of CCCCCCCC(O)C(O)CC[C@H](O)[C@@H]1CC[C@H](CCCCCCCCCCCC[C@@H](O)CC2=C[C@H](C)OC2=O)O1 (some centres unmarked) is ____.
Reply | 0.499
